test system: Mongrel dogs (cerebral blood flow); experiment: Cerebrovascular vasodilative activity (cerebral blood flow, anesthetized dogs, i.v.); assay type: in vivo; details: 0.1 mg/kg, intravenous
parameter_measured: C.B.F. increase (%)
Provide only the numeric value, understood in %.

                    structure_smiles_string  parameter_measured  measurement_units  value_reported
0  CCn1c(-c2ccc(OC)c(OC)c2)cc(=Nc2c(C)cc(C)cc2C)n(C)c1=O     C.B.F. increase                  %            35.0
1  COc1ccc(-c2cc(=Nc3ccccc3)n(C)c(=O)n2C)cc1OC     C.B.F. increase                  %            38.0
2  COc1cc(OC)c(N=c2cc(-c3ccc(OC)c(OC)c3)n(C)c(=O)n2C)c(OC)c1     C.B.F. increase                  %            57.0
3  COc1ccc(-c2cc(=Nc3c(C)cc(C)cc3C)n(C)c(=O)n2C)cc1OC     C.B.F. increase                  %            57.0

Continue with the molecule presented below.
-- ask Need C.B.F. increase, item COc1ccc(-c2cc(=Nc3cc(OC)c(OC)c(OC)c3)n(C)c(=O)n2C)cc1OC
-- reply 50.0

====

test system: Mongrel dogs (left ventricular pressure, dp/dt max); test: Cardiotonic activity (dp/dt max change, anesthetized dogs, i.v.); type: in vivo; conditions: Canis lupus familiaris, 1.0 mg/kg, intravenous, read-out: dp/dt M.C. (percentage of dp/dt max changes)
Counter-ions that a name gives are not always drawn.
parameter_measured: change in vivo at 1 mg/kg (%)
Provide only the numeric value, understood in %.

>>> df
                                   molecule  value_reported
0  COc1ccc(-c2cc(=Nc3c(C)cccc3C)n(C)c(=O)n2C)cc1OC             145
1  Nc1cc(-c2ccncc2)c[nH]c1=O [Amrinone, 3-Amino-5-(4-pyridyl)-2(1H)-pyridinone, reference compound]              80
2  COc1ccc(-c2cc(=Nc3cc(OC)c(OC)c(OC)c3)n(C)c(=O)n2C)cc1OC              88

-- ask Need change in vivo at 1 mg/kg, item COc1ccc(-c2cc(=Nc3ccc(O)cc3)n(C)c(=O)n2C)cc1OC
-- reply 158

-- ask Need change in vivo at 1 mg/kg, item COc1cc(OC)c(N=c2cc(-c3ccc(OC)c(OC)c3)n(C)c(=O)n2C)c(OC)c1
-- reply 126

-- ask Need change in vivo at 1 mg/kg, item COc1ccc(-c2cc(=Nc3c(C)cc(C)cc3C)n(C)c(=O)n2C)cc1
-- reply 102

-- ask Need change in vivo at 1 mg/kg, item COc1ccc(-c2cc(=Nc3cccnc3)n(C)c(=O)n2C)cc1OC [Example 50, dihydrochloride]
-- reply 98

-- ask Need change in vivo at 1 mg/kg, item CCCn1c(-c2ccc(OC)c(OC)c2)cc(=Nc2c(C)cc(C)cc2C)n(C)c1=O
-- reply 206

-- ask Need change in vivo at 1 mg/kg, item COc1ccc(-c2cc(=Nc3c(C)cc(C)cc3C)n(C)c(=O)[nH]2)cc1OC
-- reply 93

Values were extracted from patent US4746664A.
